# Tested on: SK-MEL-2 melanoma
# protocol-description: NCI-60 one-dose screen, 48 h
# condition-details: 10 µM unless noted
This is part of a sample that, as a whole, favours compounds with a hit. Of some 83,000 tested, about 20% had one in any assay. Activity calls are given as the source filed them. How the source made its calls: active means growth percent below 10; inactive means the rest.
Outcome (select one): t (active), f (inactive)

Ask: Please share the test call associated with CCN(CC)CCCC(C)Nc1cc(-c2cccc(OC(F)(F)F)c2)nc2ccc(N3CCCC3)cc12 (stereo not drawn) .
Result: t

Ask: Please share the test call associated with CCCCCCCCCCCCCCCC(=O)OC[C@@]1(O)C[C@@]23CC[C@@H]4C(C)(C)CCC[C@@]4(C)[C@@H]2CC[C@H]1C3 .
Result: f

Ask: Please share the test call associated with COc1cc2nc(-c3ccc(C(F)(F)F)cc3)cc(OCCCN3CCCCC3)c2cc1OC .
Result: f

Ask: Please share the test call associated with O=C1NC(=S)NC(=O)C1=Cc1cccc(C=C2C(=O)NC(=S)NC2=O)c1 .
Result: f

Ask: Please share the test call associated with COc1ccc(-c2nc(N/N=C/c3ccco3)nc(N3CCOCC3)c2C#N)cc1 .
Result: f

Ask: Please share the test call associated with C#CCn1cc(C=C2C(=O)NC(=S)NC2=O)c2cc(Cl)ccc21 .
Result: f

Ask: Please share the test call associated with CCCCCCCC(=O)Nc1nc2[nH]c(CN3CCN(Cc4cccc(I)c4)CC3)c(CN3CCN(Cc4cccc(I)c4)CC3)c2c(=O)[nH]1 .
Result: t

Continue with the next compound.
Ask: Please share the test call associated with CC1(C)CC[C@]2(C(=O)NCC#CCN3CCOCC3)CC[C@]3(C)C(=CC[C@@H]4[C@@]5(C)Cc6c([nH]c7ccccc67)C(C)(C)[C@@H]5CC[C@]43C)[C@@H]2C1 .
Result: f
